Target: human CD33 variant Y127E (human, UniProt P20138 18-364)
Sequence (P20138 18-364 Y127E limits assumed): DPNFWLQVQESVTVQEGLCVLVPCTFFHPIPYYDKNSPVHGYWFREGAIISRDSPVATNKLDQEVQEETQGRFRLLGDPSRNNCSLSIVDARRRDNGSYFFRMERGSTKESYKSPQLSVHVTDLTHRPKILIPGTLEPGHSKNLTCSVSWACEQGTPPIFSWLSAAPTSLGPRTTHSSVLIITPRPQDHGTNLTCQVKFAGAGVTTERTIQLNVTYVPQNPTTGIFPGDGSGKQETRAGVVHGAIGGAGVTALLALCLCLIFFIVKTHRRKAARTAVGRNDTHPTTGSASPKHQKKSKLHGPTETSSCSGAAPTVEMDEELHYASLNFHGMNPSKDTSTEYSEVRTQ
Test: flow cytometry, IgG on cells expressing the mutant
reported metric: Mean % WT Binding

binder="Refmab #3 (antibody, human IgG1, V domains shown, Tested in IgG format; human IgG1 Fc silent (PG-LALA)) VH: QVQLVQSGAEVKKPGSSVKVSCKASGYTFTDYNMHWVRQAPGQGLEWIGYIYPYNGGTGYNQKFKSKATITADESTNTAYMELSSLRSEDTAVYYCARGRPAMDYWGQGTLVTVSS VL: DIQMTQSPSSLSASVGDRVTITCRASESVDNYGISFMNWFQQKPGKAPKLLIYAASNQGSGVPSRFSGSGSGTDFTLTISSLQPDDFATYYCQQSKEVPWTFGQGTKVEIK" result="21.5 % of WT"
binder="Refmab #1 (antibody, human IgG1, V domains shown, Tested in IgG format; human IgG1 (Absolute Antibody hP67.6, Cat. No. Ab00283-10.0); also called hP67.6) VH: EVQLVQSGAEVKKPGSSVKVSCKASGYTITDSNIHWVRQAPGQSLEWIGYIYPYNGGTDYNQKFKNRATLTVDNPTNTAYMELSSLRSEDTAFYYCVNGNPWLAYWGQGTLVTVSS VL: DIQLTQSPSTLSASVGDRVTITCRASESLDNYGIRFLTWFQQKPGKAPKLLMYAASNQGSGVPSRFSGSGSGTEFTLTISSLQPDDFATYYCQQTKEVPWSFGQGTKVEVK" result="79.2 % of WT"
binder="Refmab #2 (antibody, human IgG1, V domains shown, Tested in IgG format; human IgG1 Fc silent (PG-LALA)) VH: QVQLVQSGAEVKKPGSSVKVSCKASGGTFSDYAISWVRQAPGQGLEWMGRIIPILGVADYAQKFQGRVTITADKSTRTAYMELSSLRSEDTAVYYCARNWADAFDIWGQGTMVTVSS VL: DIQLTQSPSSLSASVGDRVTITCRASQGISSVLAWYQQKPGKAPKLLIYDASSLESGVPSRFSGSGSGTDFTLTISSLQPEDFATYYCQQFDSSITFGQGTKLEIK" result="105 % of WT"
binder="Refmab #4 (antibody, human IgG1, V domains shown, Tested in IgG format; human IgG1 Fc silent (PG-LALA)) VH: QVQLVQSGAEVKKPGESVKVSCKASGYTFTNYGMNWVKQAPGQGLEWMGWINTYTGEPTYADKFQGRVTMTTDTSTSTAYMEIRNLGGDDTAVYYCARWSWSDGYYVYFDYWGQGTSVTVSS VL: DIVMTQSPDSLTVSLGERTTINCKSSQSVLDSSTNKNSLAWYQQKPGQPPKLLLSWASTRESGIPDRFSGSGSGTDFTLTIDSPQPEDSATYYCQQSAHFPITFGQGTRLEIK" result="104 % of WT"
